Experiment: Retention time of peptide in HPLC (hydrophobicity)
Format: physicochemical
Settings: used as measure of hydrophobicity (order Z-d14CR > Z-d14CF > Z-d13 > Z-d14CFR > Z-d14C); column and gradient not given
Positions of bridges follow the written chain, without caps; N, C: chain ends. Residues, ends and D or L forms follow the SMILES beside them.
QUANTITY_KIND: RT, retention time of peptide in HPLC (min)

[[record]]
molecule = "CC(C)[C@@H]1NC(=O)[C@@H]2CSSC[C@H](NC(=O)[C@H](Cc3ccc(O)cc3)NC(=O)[C@@H](NC(=O)CNC(=O)[C@@H](N)CCCNC(=N)N)CSSC[C@@H](C(=O)N[C@@H](CCCNC(=N)N)C(N)=O)NC1=O)C(=O)N[C@@H](CC(N)=O)C(=O)N[C@@H](CO)C(=O)N[C@@H](CCCCN)C(=O)N[C@@H](CO)C(=O)N[C@@H](Cc1ccccc1)C(=O)N2 [Z-d14CF] (H-RGCYCNSKSFCVCR-NH2; disulfide 3-13, 5-11; N-terminus assumed)"
measurement_unit = "min"
reported_measurement = 9.538


###

Assay: Retention time of peptide in HPLC (hydrophobicity)
Type: physicochemical
Settings: used as measure of hydrophobicity (order Z-d14CR > Z-d14CF > Z-d13 > Z-d14CFR > Z-d14C); column and gradient not given
Positions of bridges follow the written chain, without caps; N, C: chain ends. Residues, ends and D or L forms follow the SMILES beside them.
QUANTITY_KIND: RT, retention time of peptide in HPLC (min)

[[record]]
compound = "CC(C)[C@@H]1NC(=O)[C@@H]2CSSC[C@H](NC(=O)[C@H](Cc3ccc(O)cc3)NC(=O)[C@@H](NC(=O)CNC(=O)[C@@H](N)CCCNC(=N)N)CSSC[C@@H](C(=O)N[C@@H](CCCNC(=N)N)C(N)=O)NC1=O)C(=O)N[C@@H](CC(N)=O)C(=O)N[C@@H](CO)C(=O)N[C@@H](CCCCN)C(=O)N[C@@H](CO)C(=O)N[C@@H](C(C)C)C(=O)N2 [Z-d14C] (H-RGCYCNSKSVCVCR-NH2; disulfide 3-13, 5-11; N-terminus assumed)"
measurement_unit = "min"
reported_measurement = 7.809

[[record]]
compound = "CC(C)[C@@H]1NC(=O)[C@@H]2CSSC[C@H](NC(=O)[C@H](CCCNC(=N)N)NC(=O)[C@@H](NC(=O)CNC(=O)[C@@H](N)CCCNC(=N)N)CSSC[C@@H](C(=O)N[C@@H](CCCNC(=N)N)C(N)=O)NC1=O)C(=O)N[C@@H](CC(N)=O)C(=O)N[C@@H](CO)C(=O)N[C@@H](CCCCN)C(=O)N[C@@H](CO)C(=O)N[C@@H](C(C)C)C(=O)N2 [Z-d14CR] (H-RGCRCNSKSVCVCR-NH2; disulfide 3-13, 5-11; N-terminus assumed)"
measurement_unit = "min"
reported_measurement = 10.159

[[record]]
compound = "CC(C)[C@@H]1NC(=O)[C@@H]2CSSC[C@H](NC(=O)[C@H](CCCNC(=N)N)NC(=O)[C@@H](NC(=O)CNC(=O)[C@@H](N)CCCNC(=N)N)CSSC[C@@H](C(=O)N[C@@H](CCCNC(=N)N)C(N)=O)NC1=O)C(=O)N[C@@H](CC(N)=O)C(=O)N[C@@H](CO)C(=O)N[C@@H](CCCCN)C(=O)N[C@@H](CO)C(=O)N[C@@H](Cc1ccccc1)C(=O)N2 [Z-d14CFR] (H-RGCRCNSKSFCVCR-NH2; disulfide 3-13, 5-11; N-terminus assumed)"
measurement_unit = "min"
reported_measurement = 7.820

